The reported numbers originate from the domain aggregation screens of Martell et al. (2025).

soluble fraction (log2) reference
# test.name: soluble fraction after stress (log2 fold change); higher = more stays soluble; pooled small domains, quantitative proteomics
# conditions: stress: pH 4

| ordered.residues | sign.qualifier | soluble fraction (log2) |
| --- | --- | --- |
| HMVLSVRDRMVQILDQVKTGEYKRIEDFFSADEGRTGFVVSFVAILELVKGGLLTITQSKNLAPIYVRLPN | = | -0.108 |
| HMSKISKENEQQVIQIVQTLLLNVQDKSLITTQILNEKINLAVSLDTKYKENLDRDYIIEELIRRYSVW | = | -2.54 |
| HMDPSVTGLLTRLGISPQTAQELAGQYEEPYILEKIAIVEAHPEYVKNAAGFVITALQEDWKD | = | -1.37 |
| HMEWGEADFVRLDEALATLRTLSPRQAEVVDLRFFSELSLEETAATLGLSLATVKRDWSVARLYLQRALS | = | -0.815 |
| HMATSNGEFVIPDGGLQFEELERSLLMQALKKSGGSQTGAARLLGLSRDTLRYRLEKFGIDAAAVRE | = | -0.149 |
| HMGPAAGVVEKYNLAHLSTGEMIRKEIAEGSDFGKMAAGIINKGELLSDEFVVALIENSIEHHKNVDGFLF | = | -0.22 |
| HMSSVRDNGDLELVPGDRIRHDDYGEGRVTAVTGVGSKRIAHAVFDSVGERKLLIKLSPIEKI | = | 0.235 |
| HMGKTEMPFSTFLTEVDKGNIVSVDIRGSEISGNFRDGKGFKTYSPNYPNLVEKLSAKGVAITAGPR | = | 0.295 |
| HMFGEDNLKSKEIKERVTEVAKHADDPVWIEARRKWKDENPDQNVKDYQQAYISGRIHELPWDVSYI | = | -0.0276 |
| HMNYDPEEKITQIRTMLEIHSRIEFNEIITPATRRGEIIIIFLALLHMIKRGYIVVRQHRLFGDITIFARD | = | 0.22 |
| HMADTSLDHLGVLVRHASDVDAWAEFFENRGVTLASQPRTHRDGARSFYVDDPDGNRVQVIYHPPI | = | -0.81 |
| HMLTANPEEVVNRLTSAGEVGVRPLLDVDDPINAISTLLAIREDVYKQFAQFDTVGKSPSEIAHEIDDFL | = | -0.162 |
| HMAPPPPEGYIHRWIRESVMGFDDKKNLSARIREGFELVRAEEYPDYEAPTVMDGKHAGVIANGGLLLARF | = | -0.236 |
| HMDQHPYGEDSFRGDNPPAGFDIKGNEDSMKFHEPSSPWYGRTIAEVWFRSAAAAEAAGFVNAV | = | -0.0254 |
| HMTDDPGLSRAENRELQTLLLDRGHDIGQPDGLIGAKTRAAIRAEQSRLNMPVNGRGGQKLLRALRL | = | -0.46 |
| HMSNEEEIEGLVSKVLDNNPEIVERIRSGEDKLISYLVGEVMKQSSSSLNPGIVKEIIVNKTI | = | -0.154 |
| HMDVALEALDESDGAVRLQFSGALQTYLNDSTTAASLEAISKTFRAFYEAAGRPVDTLEVYAAGEPVT | = | -0.42 |
| HMTGVEAIERYLASGVIPGVGPVLAKRLVERFGARTLEVIEDSPRRLTQVPGIGRQKARQIHQALKAQRE | = | 0.0508 |
| HMSKPILSFVDPEKDPSHYVKRYITEETYKDWFSEHFPDYTLYEGIGITQEEYRNIVNELTKP | = | -1.7 |
| HMSADKAEAAEASLKSFNLRLQAAAMEAGKTFAPVTADQYAEYKAAWGTYIRKGIEGLSESEKKTINVG | = | -0.167 |
| HMNPNEVQIPDLVNKTEDEAEQILKDLKLKLVVKSEEYNENIEKGKIISQDPPYQENYTIKEHSEISIVIS | = | -0.415 |
| HMKDLTIRQQQFLNYIKDHLSLTGFPPTRSDIANEMGFKSPNAAEDHLRALARKGAIEIVPGTSRGIRLP | = | 0.0783 |
| HMIAVIKPSATAEQKAGLVDWIRGQGIDVHISEGHDYTVLGLIGDTSKIDMDLIASLDIVDSVKRVA | = | -0.168 |
| HMDAYSYFIRTYPLVDDPLIGDIRRIFAETHDGNPAGDADVRHILWRLLFERELYPTLDEATADWY | = | -1.86 |
| HMSDEINYVIQINGKNRAEAEFGANLDKESIENLALEHERIKELLNGLTVRKIIVVPKKLVNIVA | = | 0.178 |
| HMSREQARRFYFDTWAKHRASQPLTDLEKIALTVMLLHPEYHSLLDKPDHYVDKDYSPEAGQTNPFLHM | = | -0.474 |
| HMNRPQDLGEPYDGQFREHPEAWAFYAAQSPSYRRSASWWVLGAKQEVTRQRRLAALIDASAQGTRIPALT | = | -0.0491 |
| HMKKLPDDANDIIERVSSRLAQKFRFGYHTIDDMKQQAALFAWEGIYDSWDDSRPLENFLWIHVRNRLYN | = | 0.18 |
| HMTGAEGKLARYLLTVPSGEPLRLSATDLAKRLGISRASLYRAFQALEDARLIRREGKSMYVLDPAGLEGV | ≥ | 0.43 |
| HMEYLIENYGSVINQARMKKGMTQEQLSSKTGVSQAYIRSIESQNMKPTDAVARKIEFELGIKLFE | = | 0.147 |
| HMSTIKEKIIQYLDFKGISKYDFYQKTGVSNGVLSQKSGMSEDNIMRFLSYYDDINTDWLFYGKGEMIKT | = | -1.37 |
| HMYFDDEELDTYKGRASNAYSPDETAQFEEVMTTMRPDEVAAWLRSLQLRGINLPDELKDEAIMLVE | = | -1.22 |
| HMNFSRQREIIYEQVRNFPVHPTAEEVYRALKNDNPNLSLGTVYRNLNQLSEAGMLLKIPIADGSDRFDGR | = | -0.56 |

====

# test.name: soluble fraction after stress (log2 fold change); higher = more stays soluble; pooled small domains, quantitative proteomics
# conditions: stress: pH 4
soluble fraction (log2) reference

| ordered.residues | soluble fraction (log2) |
| --- | --- |
| HMWAQSVSLHGLLGRQALLIVDGKPPRAVAPGQTHLGVTVLSTDEDRAVVALAGGQRLTLRVGESPVSVG | 0.264 |
| HMAYSEEERNLIRSRLKDVAAALFKEKGIRDTNIDEIYTPVGISKTFFYSFFPSKAVLAIAIMK | -0.267 |
| HMEPKQIEVPNLVGISSAAARQTLSALGLHAVVKDSIWSETERIDTVLEQNPAGGALIKPEGTVYLRVSR | 0.0547 |
| HMETYTVPEVLGLTPEQAAQLPEVKDIFTLDVKEEGDFSDKPVGTIVRQSPTEGEHRKGDNLVIEVWLSV | -0.269 |
| HMQSISLEEAKSAALDDAQLGIDEVEFLKTERNTDGDTSYYDIQFLVNGTIYKYQINTETGAILHVDYEA | -0.511 |
| HMFYLPEPLTEQELRILGMLLDGRSNPEIAAELFIAVGTAKWHVHNILQKLGVANRAQAIVKAHELGLT | -1.88 |
| HMSSSLDQLTVREREILAQVSRGLSNKAIARELGISHDTVKLHVRHILSKLGFSSRVEAAVFAIEHRIG | -0.481 |
| HMMLVKKMLNGIMMKEITIKELADQYDVSTRTIQLKIKKLGYEWDSKESIYRYVGKESEPLDVDFSTLI | -1.47 |
| HMNVPLYIMIESAVEQRLLDGTYQVGKMIPTEFELMDEFSVSRETVRKAINLLVQRGKLEKKRGIGTFVAS | -0.26 |
| HMRFEWFDTLTDREKEIFGLIATGFDNQQIADRLQLAEQTVRNNISTIYSKLEVKDRFEIIRLANTI | -1.29 |
| HMKSTELSIIEALRVLGLKHGASQDSIKKSYRRLVKQHHPDLGGSADSFRKVNEAYQLLIMN | 0.0586 |
| HMLDKKKHLEQGRKIIEDQLAKYKIQPSFDTLKKLSAYYGLNNKEQLYAQVGMGFLELENLDEILQ | -0.347 |
| HMDSAMMDLVMRVQLALFTKGYDVGIIDGKIGPKTRAQIKRYQSDNRLSSTGTLTTSLLTSLGIQ | 0.00457 |
| HMAGTRRFELVEGSSSKFWEVTVADGSYTVTYGRIGTAGGSKTTESATAEADAEKLVREKLKKGYQEAGAA | 0.128 |
| HMHKPLRILVYEELRMLIMTGQIKPGTRMMEIDLAESMGVSRTPVREAIRQLEKDNLVTIEPRRGAYVSD | -0.761 |
| HMGPEISEDAKVVFDRLKNHDEILLNNFKSEFDLSNKKWDKIIKELRGNDLISIIKSEDGNLFIKP | -0.293 |
| HMQLKFTDLRKEILRMIWEGHGPQKAYDLLNKLQQTNPSAKPATVYRALDFLIGNGFIHKVASLNAFVG | -0.942 |
